Measured Level of intensity of expression in log2 measured with the Agilent chips, WD by item
# Tested on: human airway epithelial cells (HAECs)
# assay protocol: Agilent miRNA chips, miRNA expression at four stages of differentiation of HAECs
# setup conditions: stage WD; Table VI
observation type: Level of intensity of expression in log2 measured with the Agilent chips, WD (log2)

> print(dat)
                                  substance                      system.under.test  measured.value
1  hsa-miR-30b: human miRNA, SEQ ID No. 33 (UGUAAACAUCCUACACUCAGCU; expressed or natural sequence; listed as Homo sapiens)  human airway epithelial cells (HAECs)           10.17
2  hsa-let-7c: human miRNA, SEQ ID No. 159 (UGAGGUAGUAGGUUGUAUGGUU; expressed or natural sequence; listed as Homo sapiens)  human airway epithelial cells (HAECs)           10.15
3  hsa-miR-429: human miRNA, SEQ ID No. 45 (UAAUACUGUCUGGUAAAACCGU; expressed or natural sequence; listed as Homo sapiens)  human airway epithelial cells (HAECs)            9.93

###

# System: basal cells and pyramidal cells of the airway epithelium
# assay protocol: miRNA expression in sorted basal cells versus pyramidal cells (ciliated + secretory), HTS and Agilent chips
# Parameters: species or system human
# setup conditions: pyramidal cells (ciliated + secretory)
Measured Intensity of the level of expression in log2 in pyramidal cells (323(−)) by item
observation type: Intensity of the level of expression in log2 in pyramidal cells (323(−)) (log2)

> print(dat)
                                  substance  measured.value
1  hsa-let-7e: human miRNA, SEQ ID No. 160 (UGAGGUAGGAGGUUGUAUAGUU; expressed or natural sequence; listed as Homo sapiens)            6.82
2  hsa-miR-100: human miRNA, SEQ ID No. 1 (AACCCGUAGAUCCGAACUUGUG; expressed or natural sequence; listed as Homo sapiens)            4.90
3  hsa-miR-23b: human miRNA, SEQ ID No. 26 (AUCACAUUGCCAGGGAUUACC; expressed or natural sequence; listed as Homo sapiens)            7.18

###

# Test system: human airway epithelial cells (HAECs)
# assay protocol: High-throughput sequencing (HTS) of miRNAs at four stages of differentiation of HAECs
# setup conditions: stage D0; Table VI
observation type: Level of intensity of expression in log2 measured by high-throughput sequencing, D0

substance	measured value
hsa-miR-26b: human miRNA, SEQ ID No. 29 (UUCAAGUAAUUCAGGAUAGGU; expressed or natural sequence; listed as Homo sapiens)	6.84 log2
hsa-miR-378: human miRNA, SEQ ID No. 43 (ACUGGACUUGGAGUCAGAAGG; expressed or natural sequence; listed as Homo sapiens)	10.37 log2
hsa-miR-181a: human miRNA, SEQ ID No. 12 (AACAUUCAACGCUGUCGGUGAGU; expressed or natural sequence; listed as Homo sapiens)	0.01 log2
hsa-miR-29a: human miRNA, SEQ ID No. 31 (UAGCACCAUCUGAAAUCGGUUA; expressed or natural sequence; listed as Homo sapiens)	16.24 log2

###

Measured Intensity of the level of expression in log2 in basal cells (323(+)) by item
# Tested on: basal cells and pyramidal cells of the airway epithelium
# assay protocol: miRNA expression in sorted basal cells versus pyramidal cells (ciliated + secretory), HTS and Agilent chips
# Parameters: species or system human
# setup conditions: basal cells
observation type: Intensity of the level of expression in log2 in basal cells (323(+)) (log2)

substance	measured value
hsa-miR-29a: human miRNA, SEQ ID No. 31 (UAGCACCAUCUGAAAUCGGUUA; expressed or natural sequence; listed as Homo sapiens)	11.09
hsa-miR-449a: human miRNA, SEQ ID No. 46 (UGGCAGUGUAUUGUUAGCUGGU; expressed or natural sequence; listed as Homo sapiens)	2.81
hsa-miR-191: human miRNA, SEQ ID No. 13 (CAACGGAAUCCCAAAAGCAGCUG; expressed or natural sequence; listed as Homo sapiens)	0.14
hsa-miR-939: human miRNA, SEQ ID No. 50 (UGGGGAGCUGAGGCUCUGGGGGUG; expressed or natural sequence; listed as Homo sapiens)	4.81
hsa-let-7c: human miRNA, SEQ ID No. 159 (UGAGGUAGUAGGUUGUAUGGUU; expressed or natural sequence; listed as Homo sapiens)	9.43
hsa-miR-200b: human miRNA, SEQ ID No. 17 (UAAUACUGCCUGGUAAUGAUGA; expressed or natural sequence; listed as Homo sapiens)	9.99
hsa-miR-92b: human miRNA, SEQ ID No. 49 (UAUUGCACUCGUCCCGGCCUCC; expressed or natural sequence; listed as Homo sapiens)	0.40
hsa-miR-148a: human miRNA, SEQ ID No. 7 (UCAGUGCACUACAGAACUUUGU; expressed or natural sequence; listed as Homo sapiens)	7.14
hsa-miR-140-3p: human miRNA, SEQ ID No. 5 (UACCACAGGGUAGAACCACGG; expressed or natural sequence; listed as Homo sapiens)	2.75
hsa-miR-34c-5p: human miRNA, SEQ ID No. 40 (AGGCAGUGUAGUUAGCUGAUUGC; expressed or natural sequence; listed as Homo sapiens)	4.75

###

# Tested on: human airway epithelial cells (HAECs)
# assay protocol: Agilent miRNA chips, miRNA expression at four stages of differentiation of HAECs
# setup conditions: stage WD; Table VI
Measured Level of intensity of expression in log2 measured with the Agilent chips, WD by item
observation type: Level of intensity of expression in log2 measured with the Agilent chips, WD (log2)

> print(dat)
                                  substance  measured.value
1  hsa-miR-130a: human miRNA, SEQ ID No. 4 (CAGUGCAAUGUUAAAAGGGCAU; expressed or natural sequence; listed as Homo sapiens)            7.52
2  hsa-let-7f: human miRNA, SEQ ID No. 161 (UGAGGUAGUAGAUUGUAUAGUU; expressed or natural sequence; listed as Homo sapiens)           12.19
3  hsa-miR-25: human miRNA, SEQ ID No. 27 (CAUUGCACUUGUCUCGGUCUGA; expressed or natural sequence; listed as Homo sapiens)            7.80
4  hsa-let-7e: human miRNA, SEQ ID No. 160 (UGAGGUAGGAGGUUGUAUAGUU; expressed or natural sequence; listed as Homo sapiens)            9.48

###

Measured Level of intensity of expression in log2 measured by high-throughput sequencing, FC by item
# System: human airway epithelial cells (HAECs)
# assay protocol: High-throughput sequencing (HTS) of miRNAs at four stages of differentiation of HAECs
# setup conditions: stage FC; Table VI
observation type: Level of intensity of expression in log2 measured by high-throughput sequencing, FC (log2)

> print(dat)
                                  substance  unit.abbrev  measured.value
1  hsa-miR-17: human miRNA, SEQ ID No. 11 (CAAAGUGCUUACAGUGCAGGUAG; expressed or natural sequence; listed as Homo sapiens)         log2           11.81
2  hsa-miR-26a: human miRNA, SEQ ID No. 28 (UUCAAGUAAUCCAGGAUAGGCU; expressed or natural sequence; listed as Homo sapiens)         log2            0.62
3  hsa-miR-429: human miRNA, SEQ ID No. 45 (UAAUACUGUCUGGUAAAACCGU; expressed or natural sequence; listed as Homo sapiens)         log2            8.79
4  hsa-miR-191: human miRNA, SEQ ID No. 13 (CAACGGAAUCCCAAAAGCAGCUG; expressed or natural sequence; listed as Homo sapiens)         log2           16.40

###

Measured Abundance (%), FC by item
# System: human airway epithelial cells (HAECs)
# assay protocol: High-throughput sequencing (HTS) of miRNAs at four stages of differentiation of HAECs
# setup conditions: HTS, ALI-FC

substance	Abundance (%), FC
hsa-miR-125a-5p: human miRNA, SEQ ID No. 3 (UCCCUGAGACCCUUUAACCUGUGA; expressed or natural sequence; listed as Homo sapiens)	2.13%
hsa-miR-92b: human miRNA, SEQ ID No. 49 (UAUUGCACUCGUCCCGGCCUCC; expressed or natural sequence; listed as Homo sapiens)	1.54%
hsa-miR-574-3p: human miRNA, SEQ ID No. 48 (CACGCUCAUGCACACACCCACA; expressed or natural sequence; listed as Homo sapiens)	4.12%
hsa-miR-1975: human miRNA, SEQ ID No. 15 (CCCCCACAACCGCGCUUGACUAGCU; expressed or natural sequence; listed as Homo sapiens)	2.56%
